target: human GLP-1 receptor (human, UniProt P43220 24-463); assay: cell-based or functional assay
Bridge positions count the residues as written; N and C are the ends. Square brackets hold non-standard residues; d marks the D form. Ends that are not written are not given here. * marks the point of attachment. Acetyl(2-(4-imidazolyl)) = O=C(Cc1c[nH]cn1)*; Aib = CC(C)(N)C(=O)O
Listed binders paired with reported In vitro activity compared to native peptide (%) vs GLP-1
recordedMetric: In vitro activity compared to native peptide (%) vs GLP-1

{"columns": ["binder", "limitQualifier", "recordedMeasurement"],
 "data": [
  ["{Acetyl(2-(4-imidazolyl))}-[Aib]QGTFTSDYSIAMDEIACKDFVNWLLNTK (bridge 15-19) [Triple agonist of SEQ ID NO: 61]", "=", 59.8],
  ["H[Aib]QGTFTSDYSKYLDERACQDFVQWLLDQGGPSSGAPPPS [Triple agonist of SEQ ID NO: 27]", "=", 83.1],
  ["{Acetyl(2-(4-imidazolyl))}-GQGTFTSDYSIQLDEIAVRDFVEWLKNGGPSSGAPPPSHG [Triple agonist of SEQ ID NO: 14]", "=", 28],
  ["Y[Aib]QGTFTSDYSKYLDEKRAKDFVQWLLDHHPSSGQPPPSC (bridge 16-20) [Triple agonist of SEQ ID NO: 76]", "=", 10.3],
  ["H[Aib]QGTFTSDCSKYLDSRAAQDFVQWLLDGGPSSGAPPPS [Triple agonist of SEQ ID NO: 26]", "=", 64.5],
  ["H[Aib]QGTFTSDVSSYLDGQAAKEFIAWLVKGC [Triple agonist of SEQ ID NO: 1]", "=", 3.2],
  ["H[Aib]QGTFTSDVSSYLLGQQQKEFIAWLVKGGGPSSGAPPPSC [Triple agonist of SEQ ID NO: 5]", "=", 42.1],
  ["{Acetyl(2-(4-imidazolyl))}-[Aib]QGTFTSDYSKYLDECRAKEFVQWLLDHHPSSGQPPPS (bridge 15-19) [Triple agonist of SEQ ID NO: 73]", "=", 22.6],
  ["H[Aib]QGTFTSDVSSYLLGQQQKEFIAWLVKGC [Triple agonist of SEQ ID NO: 4]", "=", 8.5],
  ["Y[Aib]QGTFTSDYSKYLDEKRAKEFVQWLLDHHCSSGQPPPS (bridge 16-20) [Triple agonist of SEQ ID NO: 43]", "=", 12.6],
  ["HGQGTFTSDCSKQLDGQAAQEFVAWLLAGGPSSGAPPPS [Triple agonist of SEQ ID NO: 44]", "=", 1.3],
  ["H[Aib]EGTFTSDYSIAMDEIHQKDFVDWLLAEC (bridge 16-20) [Triple agonist of SEQ ID NO: 54]", "=", 30.6],
  ["{Acetyl(2-(4-imidazolyl))}-[Aib]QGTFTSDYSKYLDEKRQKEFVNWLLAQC (bridge 15-19) [Triple agonist of SEQ ID NO: 86]", "=", 28.4],
  ["{Acetyl(2-(4-imidazolyl))}-[Aib]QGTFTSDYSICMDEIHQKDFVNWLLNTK (bridge 15-19) [Triple agonist of SEQ ID NO: 49]", "=", 29.8],
  ["{Acetyl(2-(4-imidazolyl))}-[Aib]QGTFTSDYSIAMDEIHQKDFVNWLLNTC (bridge 15-19) [Triple agonist of SEQ ID NO: 87]", "=", 0.9],
  ["Y[Aib]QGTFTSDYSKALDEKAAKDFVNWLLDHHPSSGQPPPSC (bridge 16-20) [Triple agonist of SEQ ID NO: 99]", "=", 20.9],
  ["H[Aib]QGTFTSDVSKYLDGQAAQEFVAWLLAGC [Triple agonist of SEQ ID NO: 9]", "=", 32.1],
  ["H[Aib]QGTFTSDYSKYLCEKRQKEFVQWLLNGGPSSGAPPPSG (bridge 16-20) [Triple agonist of SEQ ID NO: 36]", "=", 37.4],
  ["H[Aib]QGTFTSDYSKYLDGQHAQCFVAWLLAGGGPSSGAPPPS [Triple agonist of SEQ ID NO: 39]", "=", 13.9],
  ["{Acetyl(2-(4-imidazolyl))}-[Aib]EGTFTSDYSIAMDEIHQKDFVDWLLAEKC (bridge 15-19) [Triple agonist of SEQ ID NO: 91]", "=", 31.9],
  ["H[Aib]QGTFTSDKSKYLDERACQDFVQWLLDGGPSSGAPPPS [Triple agonist of SEQ ID NO: 40]", "=", 75.2],
  ["{Acetyl(2-(4-imidazolyl))}-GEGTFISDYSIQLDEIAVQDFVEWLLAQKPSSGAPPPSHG [Triple agonist of SEQ ID NO: 13]", "<", 0.1]
]}
